target: LTA4H (leukotriene A4 hydrolase) (Homo sapiens, UniProt P09960)
Sequence (P09960 whole entry): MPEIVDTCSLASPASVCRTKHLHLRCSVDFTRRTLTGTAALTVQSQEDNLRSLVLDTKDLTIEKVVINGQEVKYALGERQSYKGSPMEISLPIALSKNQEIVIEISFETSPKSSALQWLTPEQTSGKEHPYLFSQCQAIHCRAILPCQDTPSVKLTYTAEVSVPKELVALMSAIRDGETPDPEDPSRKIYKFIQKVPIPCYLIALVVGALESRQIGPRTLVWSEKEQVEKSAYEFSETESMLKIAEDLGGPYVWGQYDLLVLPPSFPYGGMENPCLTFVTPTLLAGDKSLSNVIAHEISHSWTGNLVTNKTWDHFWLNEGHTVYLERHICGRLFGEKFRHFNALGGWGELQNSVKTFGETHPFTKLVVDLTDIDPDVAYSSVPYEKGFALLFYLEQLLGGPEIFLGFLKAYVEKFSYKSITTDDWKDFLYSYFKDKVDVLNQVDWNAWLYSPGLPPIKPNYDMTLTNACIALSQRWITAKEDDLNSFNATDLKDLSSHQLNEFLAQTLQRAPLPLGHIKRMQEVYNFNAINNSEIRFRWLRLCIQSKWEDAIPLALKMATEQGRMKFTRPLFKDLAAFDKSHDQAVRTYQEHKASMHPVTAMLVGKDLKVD
pIC50: −log10 of the molar value. Counter-ions that a name gives are not always drawn.
# key: entry, value: pIC50

Recorded pIC50, per entry:
Req: Answer with pIC50 of COC(=O)[C@H](N)Cc1ccc(Oc2ccc(Oc3ccccc3)cc2)cc1 [Example 1, hydrochloride] measured for LTA4H (leukotriene A4 hydrolase) (Homo sapiens, UniProt P09960).
Resp: 4.70 to 5.30

Req: Answer with pIC50 of COC(=O)[C@H](N)Cc1ccc(Oc2ccc(C(=O)c3ccccc3)cc2)cc1 [Example 2, hydrochloride] measured for LTA4H (leukotriene A4 hydrolase) (Homo sapiens, UniProt P09960).
Resp: > 5.30

Req: Answer with pIC50 of N[C@@H](Cc1ccc(Oc2ccc(Oc3ccccc3)cc2)cc1)C(=O)O [Example 6, hydrochloride] measured for LTA4H (leukotriene A4 hydrolase) (Homo sapiens, UniProt P09960).
Resp: > 5.30

***
Req: Answer with pIC50 of N[C@@H](CO)Cc1ccc(Oc2ccc(Oc3ccccc3)cc2)cc1 [Example 3, hydrochloride] measured for LTA4H (leukotriene A4 hydrolase) (Homo sapiens, UniProt P09960).
Resp: > 5.30

Req: Answer with pIC50 of N[C@H](CO)Cc1ccc(Oc2ccc(Oc3ccccc3)cc2)cc1 [Example 4, hydrochloride] measured for LTA4H (leukotriene A4 hydrolase) (Homo sapiens, UniProt P09960).
Resp: > 5.30

Req: Answer with pIC50 of CN[C@H](CO)Cc1ccc(Oc2ccc(Cc3ccccc3)cc2)cc1 [Example 9, hydrochloride] measured for LTA4H (leukotriene A4 hydrolase) (Homo sapiens, UniProt P09960).
Resp: 4.70 to 5.30

Req: Answer with pIC50 of N[C@@H](C(=O)O)c1ccc(Oc2ccc(Cc3ccccc3)cc2)cc1 [Example 15, hydrochloride] measured for LTA4H (leukotriene A4 hydrolase) (Homo sapiens, UniProt P09960).
Resp: > 5.30

Req: Answer with pIC50 of CN[C@H](CO)Cc1ccc(Oc2ccc(Oc3ccccc3)cc2)cc1 [Example 8, hydrochloride] measured for LTA4H (leukotriene A4 hydrolase) (Homo sapiens, UniProt P09960).
Resp: 4.70 to 5.30

Req: Answer with pIC50 of N[C@@H](Cc1ccc(Oc2ccc(Oc3ccc(-c4nccs4)cc3)cc2)cc1)C(=O)O measured for LTA4H (leukotriene A4 hydrolase) (Homo sapiens, UniProt P09960).
Resp: > 5.30

* * *

biological target: LTA4H (leukotriene A4 hydrolase) (Homo sapiens); assay: LTA4H enzyme inhibition (EnzIC50); type: biochemical
Where a name gives a salt, the structure may show the parent alone.
# key: entry, value: IC50

Recorded IC50, per entry:
Req: Answer with reported IC50 of CC(=O)N(O)C[C@@H](N)Cc1ccc(Oc2ccc(Cl)cc2)cc1 [Example 22, HCl salt]
Resp: < 5 µM

Req: Answer with reported IC50 of N[C@H](CNO)Cc1ccc(Oc2ccc(Cl)cc2)cc1 [Example 21, HCl salt]
Resp: < 5 µM

Req: Answer with reported IC50 of N[C@@H](Cc1ccc(Oc2ccc(Cc3ccc(Cl)cc3)cc2)cc1)C(=O)O [Example 5, hydrochloride]
Resp: 5 to 20 µM

***
Req: Answer with reported IC50 of N[C@@H](Cc1ccc(Oc2ccc(Oc3ccccc3)cc2)cc1)C(O)C(=O)O (stereo partly shown) [Example 10, hydrochloride]
Resp: < 5 µM
